# Test system: A/duck/Minnesota/1525/81 (low pathogenic avian influenza H5N1)
# method description: microbe, parasite or virus in culture
# Type: cell-based, Influenza A virus (H5N1 low pathogenic)
# test settings: low pathogenic H5N1 A/duck/Minnesota/1525/81
attribute measured: pEC50
The read-out pEC50 is expressed as -log10 of concentration in moles per litre.

Requested read-out: pEC50. Entry: Cl.O=C(CNC12CC3CC(CC(C3)C1)C2)c1ccc(F)cc1
5.53

###

Can you tell me CC50 for the items I'm about to list?

Fill in the recorded CC50 for this molecule, with primary human peripheral blood mononuclear cells as test system: Cl.O=C(CNC12CC3CC(CC(C3)C1)C2)c1ccc(F)cc1 [Compound 12]
> 100 µM

Fill in the recorded CC50 for this molecule, with primary human peripheral blood mononuclear cells as test system: CC(=NC12CC3CC(CC(C3)C1)C2)c1ccc(F)cc1 [Compound 4]
> 100 µM

Fill in the recorded CC50 for this molecule, with primary human peripheral blood mononuclear cells as test system: Nc1nc2ncc(CNc3ccc(C(=O)N[C@@H](CCC(=O)[O-])C(=O)[O-])cc3)nc2c(=O)[nH]1.O.O.O.O.[Na+].[Na+] [Compound 11]
> 100 µM

Values were extracted from paper PMC7734623.
